System: Plasmodium berghei
Experiment: Screen against P. berghei liver stage (PbLuc), transformed with Luciferase, at 2uM
Format: functional, HepG2
Conditions: tested at 2 uM
Among all 68,000 compounds or so, about 2,700 (4%) showed an effect of 50% or more. The sample holds strong results, similar compounds and a random draw of the others, so the mix is not that of the screen.
Give INHIBITION for every item shown.
Record the value in %, omitting the unit from your answer.

Sample COc1cccc(-c2n[nH]cc2C(=O)NC(C)c2n[nH]c(C)n2)c1 (centres undefined) ; INHIBITION observed: 64.2

Sample "COc1ccc(F)cc1-c1ccccc1CC1(C(=O)O)CCOCC1" ; INHIBITION observed: 53.95

Sample "Cc1cnc(C(C)(C)NC(=O)NCc2ccc(C#N)cc2F)s1" ; INHIBITION observed: 16.79

Sample CCc1cnc(CN(C)C2CCN(CCc3ccccn3)C2)o1 (centres undefined) ; INHIBITION observed: -3.88

Sample "COc1ccccc1-c1ccccc1CC1(C(=O)O)CCNCC1" ; INHIBITION observed: -18.15

Sample "NC(=O)CCn1cc(CNCCCc2ccncc2)c2ccccc21" ; INHIBITION observed: 3.49

Sample CCOc1ccccc1C(=O)NC(CC(=O)O)c1cccs1 (centres undefined) ; INHIBITION observed: -23.34

Sample "Cc1nc(-c2ccccc2)n(CC(=O)NC2CCCC2)n1" ; INHIBITION observed: 37.68

Sample "Cc1cc(CN(C)C(=O)NCc2ccccn2)no1" ; INHIBITION observed: 26.62

Sample "CC(C)(C)NC(=O)C1(Cc2ccccc2-c2ccncc2)CCOCC1" ; INHIBITION observed: 16.55

Sample COc1ccccc1C1=NOC(CC2(C(=O)O)CCOCC2)C1 (centres undefined) ; INHIBITION observed: 8.89

Sample CN(Cc1nc2ccccc2s1)C1CCCN(c2cccnn2)C1 (centres undefined) ; INHIBITION observed: 29.39

Sample "CC(C)c1cc(CN(C)C(=O)CN2CCCCC2=O)no1" ; INHIBITION observed: -11.61

Sample "Cc1ccc2nc(CN(C)Cc3n[nH]c4c3CCCCC4)[nH]c2c1C" ; INHIBITION observed: -17.01

* * *

Give INHIBITION for every item shown.
System: Plasmodium berghei
Test: Screen against P. berghei liver stage (PbLuc), transformed with Luciferase, at 2uM
Assay type: functional, HepG2
Settings: tested at 2 uM
Hit rate of the full screen: of about 68,000 compounds, about 2,700 (4%) showed an effect of 50% or more. What follows is part of a selection rich in strong results, with near analogues and random picks from the rest.
Record the value in %, omitting the unit from your answer.

Sample "O=C(NCCc1nnc2n1CCCCC2)N1CCC2(CCCC2)CC1" ; INHIBITION observed: 55.36

Sample "CCc1cc(C(=O)N2CCc3nc4c(C)csc4c(=O)n3CC2)on1" ; INHIBITION observed: 51.32

Sample "O=C(NCCc1ccc(Cl)s1)NCc1nnc2n1CCCC2" ; INHIBITION observed: -19.35

Sample "Cc1cn(Cc2ccccc2)nc1N" ; INHIBITION observed: 43.77

Sample "Cc1csc2c(=O)n3c(nc12)CCN(C(=O)c1ccnn1C)CC3" ; INHIBITION observed: 19.07

Sample Cc1cccc(-c2ccc(C(=O)NCC3CCCO3)c(=O)[nH]2)c1 (centres undefined) ; INHIBITION observed: 57.77

Sample O=C(NCC1(c2ccc(F)cc2)CC1)N1CCC2(CCOC2)C1 (centres undefined) ; INHIBITION observed: -21.09

Sample "CCc1nnsc1C(=O)NCCc1nnc2n1CCC2" ; INHIBITION observed: -8.74

Sample "COCCNc1c(C#N)c2c(c3nncn13)CN(C)CC2" ; INHIBITION observed: 18.59

Sample "CNc1ncc(-c2csc(NC(=O)C[C@H]3COCCN3)n2)cn1" ; INHIBITION observed: 12.21

Sample "CN1CCc2c(C#N)c(NCCCO)n3cnnc3c2C1" ; INHIBITION observed: -9.74

Sample CN(Cc1ccon1)C(=O)C1CC(=O)N(Cc2ccncc2)C1 (centres undefined) ; INHIBITION observed: 15.96

Sample "O=C(NCCc1nnc2n1CCC2)N1CCC2(CCCCC2)C1" ; INHIBITION observed: -9.03

Sample "CC(C)SCC(=O)NCc1cc2n(n1)CCCN(C1CCCCC1)C2" ; INHIBITION observed: 50.02

* * *

Test system: Plasmodium berghei
Assay: Screen against P. berghei liver stage (PbLuc), transformed with Luciferase, at 2uM
Format: functional, HepG2
Conditions: tested at 2 uM
Screen size: about 68,000 compounds; about 2,700 (4%) showed an effect of 50% or more. Shown is part of a subset that was picked to be rich in strong results.
Given measured INHIBITION, output 1.0 if it is greater than or equal to 20% and 0.0 if not.

Assess whether reported INHIBITION for Cc1cc(-c2ccc(C(C)N3CCCCC3)cc2)cnc1N (stereo not given) sits at 20% or higher. 1.0

Assess whether reported INHIBITION for "CNC(=O)c1ccc(S(=O)(=O)NCCc2ccccn2)cc1" sits at 20% or higher. 1.0

Assess whether reported INHIBITION for "CNC(=O)CS(=O)(=O)C1CCN(S(=O)(=O)c2cccc(Cl)c2C)CC1" sits at 20% or higher. 0.0

Assess whether reported INHIBITION for "COc1ccc(CNc2c(C)nn(C(C)C)c2C)cc1OC" sits at 20% or higher. 0.0

Assess whether reported INHIBITION for "CNC(=O)CS(=O)(=O)C1CCN(S(=O)(=O)c2ccccc2Cl)CC1" sits at 20% or higher. 1.0

Assess whether reported INHIBITION for "CCN(CC(=O)NCCc1nc(C)no1)Cc1ccc(Cl)cc1" sits at 20% or higher. 0.0

Assess whether reported INHIBITION for O=C(NCc1cc[nH]n1)NC1CCCN(c2ncccn2)C1 (stereo not given) sits at 20% or higher. 0.0

Assess whether reported INHIBITION for Cc1ccc(CN2CCC3(CC2)CC(c2cccnc2)CO3)s1 (stereo not given) sits at 20% or higher. 1.0

Assess whether reported INHIBITION for CCc1[nH]c2c(CNC(=O)C3CNC(=O)C3)cc(C)cc2c1C (stereo not given) sits at 20% or higher. 1.0

Assess whether reported INHIBITION for "O=C(Nc1cnc2n1CCCC2)c1cccc(-n2cnnc2)c1" sits at 20% or higher. 1.0

Assess whether reported INHIBITION for "CCc1[nH]c2c(CNC(=O)C3CCS(=O)(=O)CC3)cc(C)cc2c1C" sits at 20% or higher. 0.0

Assess whether reported INHIBITION for "Cc1ccc(CN2CCC3(CCC(=O)N3CC(=O)N(C)C)CC2)s1" sits at 20% or higher. 1.0

Assess whether reported INHIBITION for "COC(=O)CN(C(=O)c1ccc(Cl)o1)c1cccc(F)c1" sits at 20% or higher. 1.0

Assess whether reported INHIBITION for "COCCOCC(=O)NC1CCN(c2ccccn2)CC1" sits at 20% or higher. 0.0

Assess whether reported INHIBITION for "CCC[C@H]1CN(c2cncc(C(=O)N3CCCCC3)n2)C[C@@H]1N(C)C" sits at 20% or higher. 0.0

Assess whether reported INHIBITION for "O=C1NCCN1C1CCN(Cc2nc(-c3ccccc3)no2)CC1" sits at 20% or higher. 1.0

Assess whether reported INHIBITION for Cc1cnn(CC2CN(Cc3nccn3CC(F)(F)F)CCO2)c1 (stereo not given) sits at 20% or higher. 1.0

Assess whether reported INHIBITION for "Cc1ccc(C(=O)N2C[C@H](NS(C)(=O)=O)[C@@H](C(C)C)C2)cc1F" sits at 20% or higher. 0.0

Assess whether reported INHIBITION for "CC(C)c1noc(CNc2ccc(OC(F)F)cc2OC(F)F)n1" sits at 20% or higher. 0.0

Assess whether reported INHIBITION for "CC(C)[C@@H]1CN(Cc2cnc(C3CCCCC3)nc2)C[C@H]1N(C)C" sits at 20% or higher. 0.0

Assess whether reported INHIBITION for CC(c1ccc(-c2cnc(N)nc2)cc1)N1CCOCC1 (stereo not given) sits at 20% or higher. 1.0

Assess whether reported INHIBITION for Cc1ncc(CN2CCOC(c3ccc(-c4ccccc4F)cn3)C2)s1 (stereo not given) sits at 20% or higher. 1.0

Assess whether reported INHIBITION for "CNC(=O)CN1CCCC12CCN(C(=O)c1ccsc1)CC2" sits at 20% or higher. 1.0

Assess whether reported INHIBITION for "Cc1nnc(N2CC[C@@H](OCC3CC3)[C@@H](Cc3ccccc3)C2)s1" sits at 20% or higher. 0.0

Assess whether reported INHIBITION for "CN(Cc1ccco1)Cc1ccccc1CNC(=O)c1cnc[nH]1" sits at 20% or higher. 1.0
